Assay: Cytotoxicity against human A549 cells assessed as cell viability up to 0.3019 mM measured after 72 hrs by MTT assay relative to control
Type: toxicity, cell-based
Conditions: read-out: Activity
measure: viability at 72 h, up to 301.9 µM

The recorded viability at 72 h, up to 301.9 µM for `C/C(Cn1cc(-c2csc(N)n2)c(=O)c2cc(F)c(Cl)cc21)=N\NC(N)=S` is > 75%

###

For each entry below, report its MIC value.
Test system: Aspergillus fumigatus
Experiment: Antifungal activity against Aspergillus fumigatus
Assay type: functional
Write the number in µM without appending the unit.

The recorded MIC for `CC(=O)Cn1cc(-c2csc(N)n2)c(=O)c2cc(F)cc(F)c21` is 382

The recorded MIC for `CCOC(=O)c1cn(C/C(C)=N/NC(N)=S)c2cc(F)c(F)cc2c1=O` is 670

The recorded MIC for `CC(=O)Cn1cc(-c2csc(N)n2)c(=O)c2cc(F)c(F)cc21` is 382

The recorded MIC for `Nc1nc(-c2c[nH]c3c(F)cc(F)cc3c2=O)cs1` is 459

The recorded MIC for `C/C(Cn1cc(-c2csc(N)n2)c(=O)c2cc(F)c(Cl)cc21)=N\NC(N)=S` is 151

The recorded MIC for `Cc1nc(-c2c[nH]c3cc(Cl)c(F)cc3c2=O)cs1` is 435

The recorded MIC for `C/C(Cn1cc(-c2csc(N)n2)c(=O)c2cc(F)cc(F)c21)=N\NC(N)=S` is 1260

The recorded MIC for `Nc1nc(Cn2cc(-c3csc(N)n3)c(=O)c3cc(F)c(Cl)cc32)cs1` is 315

The recorded MIC for `CC(=O)Cn1cc(-c2csc(N)n2)c(=O)c2cc(F)c(Cl)cc21` is 365

The recorded MIC for `Nc1nc(-c2c[nH]c3cc(F)c(F)cc3c2=O)cs1` is 229
